# Test system: T. brucei brucei clone 427-221a (bloodstream forms)
# Assay Remarks: T. brucei brucei growth inhibition assay (CellTiter-Glo ATP bioluminescence)
# Assay type: cell-based
# Assay Setup: 40 hours incubation, 95% Confidence Intervals in parentheses, read-out: T. b. brucei IC50
Assay Metric: pIC50
To interpret pIC50, take it as minus log10 of a concentration measured in moles per litre.

Example results:
# Molecule, pIC50
rows = [
    ("CN[C@@]1(c2ccccc2Cl)CCCC[C@H]1NCCCN1CCOCC1 (relative stereo) [Example 16b]", 5.77),
    ("CN[C@]1(c2ccccc2Cl)CCCC[C@H]1NCCCn1ccnc1 (relative stereo) [Example 12a]", 4.80),
]

Consider now this further molecule.
Using the record for CN[C@@]1(c2ccccc2Cl)CCCC[C@H]1NCCCc1ccccc1 (relative stereo) [Example 15b] , report its pIC50. 5.34
